Tested on: human serum proteins
METHOD_DESCRIPTION: Binding rate to proteins by ultrafiltration method
Assay type: in vitro ADME
MEASUREMENT_CONDITIONS: 5 μg/mL, 37° C. for 30 minutes
MEASUREMENT_NAME: Binding rate to proteins (%)
One number for each entry, in %.

> print(dat)
                                   compound  reading
1  CCc1c(N2CC(NC(C)C)C2)c(F)cc2c(=O)c(C(=O)O)cn(-c3nc(N)c(F)cc3F)c12 [compound 3]     44.3
2  CCNC1CN(c2c(F)cc3c(=O)c(C(=O)O)cn(-c4nc(N)c(F)cc4F)c3c2Br)C1 [compound 2]     62.8
3  Cc1c(N2CC(NC(C)(C)C)C2)c(F)cc2c(=O)c(C(=O)O)cn(-c3nc(N)c(F)cc3F)c12 [compound 6]     26.8

For the 4 compounds below, give their Binding rate to proteins values.
1. CC(C)NC1CN(c2c(F)cc3c(=O)c(C(=O)O)cn(-c4nc(N)c(F)cc4F)c3c2Br)C1.O=C(O)/C=C\C(=O)O [compound 12]
2. CC(C)NC1CN(c2c(F)cc3c(=O)c(C(=O)O)cn(-c4nc(N)c(F)cc4F)c3c2Br)C1 [compound 1]
3. CC(C)(C)NC1CN(c2c(F)cc3c(=O)c(C(=O)O)cn(-c4nc(N)c(F)cc4F)c3c2Br)C1 [compound 4]
4. CNC1CN(c2c(F)cc3c(=O)c(C(=O)O)cn(-c4nc(N)c(F)cc4F)c3c2Br)C1 [compound 1]

[64.0, 64.0, 44.9, 49.0]

###

Task for the reader: assign each of the following compounds its reported Tmax.
METHOD_DESCRIPTION: Pharmacokinetics: absorbability after oral administration, serum level
Assay type: in vivo, dogs
MEASUREMENT_CONDITIONS: dog; male beagle dogs, fasted, 10 mg/kg oral, 0.5% methylcellulose suspension, serum
Give bare numbers, in h.

> print(dat)
                              line.notation  unit.tag  reading
1  CCNC1CN(c2c(F)cc3c(=O)c(C(=O)O)cn(-c4nc(N)c(F)cc4F)c3c2Br)C1.O=C(O)/C=C\C(=O)O         h        1

For the 2 compounds below, give their Tmax values.
1. CNC1CN(c2c(F)cc3c(=O)c(C(=O)O)cn(-c4nc(N)c(F)cc4F)c3c2Br)C1.O=C(O)/C=C\C(=O)O
2. CC(C)NC1CN(c2c(F)cc3c(=O)c(C(=O)O)cn(-c4nc(N)c(F)cc4F)c3c2Br)C1.O=C(O)/C=C\C(=O)O

1: 1; 2: 1
